# assay: qHTS for Inhibitors of human tyrosyl-DNA phosphodiesterase 1 (TDP1): qHTS in cells in absence of CPT; note: nearly all actives have a fitted effect of over 55% in size
# experimental_setup: DT40 Tdp1-/- hTDP1 cells, no CPT, ATP luminescence, 48 h
In all, about 420,000 compounds went through this assay and about 64,000 (15%) were called active. Inconclusive results (about 27%) are left out. Calls come from the whole dose curve; as a rule, active = well fitted inhibition curve with a large enough effect; inconclusive = small, poorly fitted or top-dose-only effect; inactive = flat fitted curve, though single readings scatter. A selection follows.
Possible outcomes: active, inactive

molecule	assigned_label
COc1ccc([N+](=O)[O-])cc1N(CC(=O)Nc1ccccc1C(=O)N1CCOCC1)S(C)(=O)=O	inactive
O=C(Cn1cnc2c(OCc3ccccc3)ncnc21)NCCCn1ccnc1	inactive
COc1ccc(C(=O)NCC2CCCO2)cc1S(=O)(=O)NCc1ccc(Cl)cc1 (centres undefined)	inactive
C/C(=N/OC(=O)c1cccc(C(F)(F)F)c1)c1cnccn1	inactive
CN(CC(=O)Nc1c(Cl)cccc1Cl)C(=O)CC1OC(=O)c2ccccc21 (centres undefined)	inactive
CCCCN(C(=O)c1nn(C)c(=O)c2ccccc12)c1c(N)n(CCC)c(=O)[nH]c1=O	inactive
CCOC(=O)c1cc2c(n(-c3ccc(C)cc3)c1=O)CCCC2=O	inactive
COc1cccc(-n2c(=O)c3c(C)c(C(=O)N(C)C)sc3n(CC(=O)NCCc3ccc(OC)c(OC)c3)c2=O)c1	inactive
C=C1C(=O)[C@]23C[C@H]1CCC2[C@@]1(C)C(C[C@@H]3O)[C@](C)(C(=O)O)CC[C@@H]1O (some centres undefined)	active

---

# assay: qHTS for Inhibitors of human tyrosyl-DNA phosphodiesterase 1 (TDP1): qHTS in cells in absence of CPT; note: nearly all actives have a fitted effect of over 55% in size
# experimental_setup: DT40 Tdp1-/- hTDP1 cells, no CPT, ATP luminescence, 48 h
# Experimental: Human tyrosyl-DNA phosphodiesterase 1 (TDP1) is a novel repair gene, and we propose to use it as a new target for anticancer drug development. […] For the primary screen, Tdp1-/-;hTDP1 cells will be exposed to small molecules in the presence or absence of CPT, and their growth kinetics will be evaluated after 48 hours by measuring ATP activity. […] The hit compounds will then be evaluated in the presence or absence of CPT using Tdp1-/- cells. […]
Out of some 420,000 compounds screened, about 64,000 (15%) were called active. Roughly 27% stayed inconclusive and do not appear here. Calls come from the whole dose curve; as a rule, active = well fitted inhibition curve with a large enough effect; inconclusive = small, poorly fitted or top-dose-only effect; inactive = flat fitted curve, though single readings scatter. Only a sample is shown.
Possible outcomes: true (1) = active, false (0) = inactive

molecule	assigned_label
CCOc1ccc(S(=O)(=O)N2CCN(C(=O)c3oc4ccccc4c3C)CC2)cc1	false (0)
Cc1cccc(C(=O)N2CCc3c([nH]c4ccccc34)C2CC(C)C)n1 (stereo not given)	false (0)
CCOC(=O)c1oc2ccc(S(=O)(=O)n3nc(-c4ccccc4OC)cc3N)cc2c1C	true (1)
Cc1ccc(C2c3[nH]c4ccccc4c3CCN2C(=O)c2cccc(C)c2)cc1 (stereo not given)	true (1)
CCCC(=O)N1c2ccccc2NC2=C(C(=O)CCC2)C1c1ccc(F)cc1 (stereo not given)	false (0)
CCOc1cccc(CC(=O)N2CCc3c([nH]c4ccccc34)C2c2ccc(F)cc2)c1OCC (stereo not given)	true (1)
CCOC(=O)c1cc(-c2ccccc2)n(-c2cccc(C(=O)Nc3cc(OC)cc(OC)c3)c2)c1C	false (0)
CC12CCC(=O)N1C(C(=O)Nc1ccc(F)c(F)c1F)CS2 (stereo not given)	false (0)
CCN(CC)C(CNC(=O)CSc1nnnn1-c1cccc(F)c1)c1ccco1 (stereo not given)	false (0)
O=C(CCN1CCCCC1)Nc1ccc(F)c(F)c1	false (0)
